Molecular target: PI3K (p110β/p85α) (h) (Homo sapiens (Human))
Sequence (P42338 whole entry): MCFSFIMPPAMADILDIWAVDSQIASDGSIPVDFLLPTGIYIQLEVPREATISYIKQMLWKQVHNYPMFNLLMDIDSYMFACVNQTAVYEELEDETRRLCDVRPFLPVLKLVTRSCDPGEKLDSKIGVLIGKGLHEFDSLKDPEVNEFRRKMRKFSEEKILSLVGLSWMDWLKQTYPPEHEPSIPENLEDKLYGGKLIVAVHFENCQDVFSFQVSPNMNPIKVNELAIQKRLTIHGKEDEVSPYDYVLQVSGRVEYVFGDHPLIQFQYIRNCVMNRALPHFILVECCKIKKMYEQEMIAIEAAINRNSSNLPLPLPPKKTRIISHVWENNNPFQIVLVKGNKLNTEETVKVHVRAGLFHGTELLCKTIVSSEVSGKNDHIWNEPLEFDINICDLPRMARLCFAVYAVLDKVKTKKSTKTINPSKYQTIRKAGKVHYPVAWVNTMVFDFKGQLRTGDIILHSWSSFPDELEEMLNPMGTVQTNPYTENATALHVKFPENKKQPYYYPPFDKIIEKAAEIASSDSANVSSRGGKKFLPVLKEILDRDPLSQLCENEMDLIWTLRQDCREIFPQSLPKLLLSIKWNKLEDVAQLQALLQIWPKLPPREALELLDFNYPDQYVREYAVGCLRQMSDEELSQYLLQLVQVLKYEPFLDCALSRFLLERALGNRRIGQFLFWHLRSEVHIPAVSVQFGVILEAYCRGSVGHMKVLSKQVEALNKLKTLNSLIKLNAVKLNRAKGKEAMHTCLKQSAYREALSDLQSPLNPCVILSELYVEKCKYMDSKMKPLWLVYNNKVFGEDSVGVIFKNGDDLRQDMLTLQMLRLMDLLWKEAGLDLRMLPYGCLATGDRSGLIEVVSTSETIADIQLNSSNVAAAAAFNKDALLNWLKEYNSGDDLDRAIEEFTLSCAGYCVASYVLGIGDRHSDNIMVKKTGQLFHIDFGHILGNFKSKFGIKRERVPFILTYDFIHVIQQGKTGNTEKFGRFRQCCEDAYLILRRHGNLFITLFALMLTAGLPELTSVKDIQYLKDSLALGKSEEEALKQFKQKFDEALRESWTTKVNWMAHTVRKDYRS
Sequence (P27986 whole entry partner): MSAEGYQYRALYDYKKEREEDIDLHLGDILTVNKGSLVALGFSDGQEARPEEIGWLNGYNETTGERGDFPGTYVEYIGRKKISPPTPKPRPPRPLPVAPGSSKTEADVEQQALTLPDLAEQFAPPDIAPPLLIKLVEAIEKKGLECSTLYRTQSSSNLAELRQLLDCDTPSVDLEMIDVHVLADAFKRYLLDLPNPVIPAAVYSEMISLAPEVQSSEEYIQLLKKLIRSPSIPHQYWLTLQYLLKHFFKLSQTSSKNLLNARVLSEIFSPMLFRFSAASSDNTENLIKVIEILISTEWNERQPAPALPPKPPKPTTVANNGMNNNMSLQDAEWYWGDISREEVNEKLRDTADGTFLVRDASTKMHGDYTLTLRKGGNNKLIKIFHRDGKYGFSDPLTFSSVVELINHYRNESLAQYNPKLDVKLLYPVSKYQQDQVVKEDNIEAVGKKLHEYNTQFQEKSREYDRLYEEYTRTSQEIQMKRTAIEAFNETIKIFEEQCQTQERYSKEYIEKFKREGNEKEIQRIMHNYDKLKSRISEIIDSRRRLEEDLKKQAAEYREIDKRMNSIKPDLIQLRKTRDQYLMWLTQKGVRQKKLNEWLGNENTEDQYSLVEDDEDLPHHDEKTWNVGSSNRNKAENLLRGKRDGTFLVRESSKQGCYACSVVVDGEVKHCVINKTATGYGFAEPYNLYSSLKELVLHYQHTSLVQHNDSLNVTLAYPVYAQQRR
Experiment: PI3K (p110β/p85α) (h) non-radioactive HTRF kinase assay
Details: performed at Millipore UK Ltd
property_name: IC50 (nM)

Check out these entries, answers already filled in.
### Prompt Param readout= IC50; system= PI3K (p110β/p85α) (h) (Homo sapiens (Human)); entry= Cc1noc(-c2c(N)ncnc2N[C@@H](C)c2cc3cccc(-c4cnn(C)c4)c3c(=O)n2-c2ccccc2)n1 ; returns value.
### Response 1170

### Prompt Param readout= IC50; system= PI3K (p110β/p85α) (h) (Homo sapiens (Human)); entry= Cc1nnc(-c2c(N)ncnc2N[C@@H](C)c2cc3cccc(-c4cnn(C)c4)c3c(=O)n2C2CC2)o1 ; returns value.
### Response 900

### Prompt Param readout= IC50; system= PI3K (p110β/p85α) (h) (Homo sapiens (Human)); entry= Cc1nnc(-c2c(N)ncnc2N[C@@H](C)c2cc3cccc(Cl)c3c(=O)n2C2CC2)o1 ; returns value.
### Response 30

a: CC[C@H](Nc1ncnc(N)c1-c1nnc(C)o1)c1cc2cccc(Cl)c2c(=O)n1-c1ccccc1
b: Cc1noc(-c2c(N)ncnc2N[C@@H](C)c2cc3cccc(-c4cnn(C)c4)c3c(=O)n2C2CC2)n1
### Prompt // compare measured IC50 between a and b ; output the lower one Respond using the label that marks the chosen record.
### Response b
(b: 176 nM, a: 259 nM)

Data credit: patent US9512114B2
